tested on: NCI-H23 lung; assay: NCI-60 one-dose screen, 48 h; conditions: 10 µM unless noted
The panel holds about 83,000 compounds, 20% with a hit somewhere; the sample as a whole holds those more often. The source made the active and inactive calls. The calls were made as follows: active = growth percent below 10; inactive = the rest.
Allowed answers: active, inactive

Ask: Could you please tell me the result logged for CC(=O)OCC(=O)[C@@]1(O)CC[C@H]2[C@@H]3CCC4=CC(=O)CC[C@]4(C)[C@@]3(F)[C@@H](O)C[C@@]21C in this assay?
Result: inactive

Ask: And CC(C)Cn1cnc2c(NCn3nc(-c4cc(Cl)cc(Cl)c4Cl)n(/N=C/c4ccc(Cl)cc4)c3=S)nc3ccccc3c21 ?
Result: inactive

Ask: And CC1CC=CCC1C1OCC(C)(C)CO1 (stereo not given) ?
Result: inactive

Ask: And C/C=C(/C(=C/C)c1ccc(O)cc1)c1ccc(O)cc1 ?
Result: inactive

Ask: And CC[C@H]1CN2CCc3cc(OC)c(OC)cc3C2C[C@@H]1CC1NCCc2cc(OC)c(OC)cc21 (stereo not given in full) ?
Result: active

Ask: And Cc1cc(C)c(C(=O)c2cccs2)c(C)c1 ?
Result: inactive

Ask: And Oc1c(Cl)cc(Cl)c(Cl)c1Cc1c(O)c(Cl)cc(Cl)c1Cl ?
Result: active

Ask: And COc1ccc2[nH]c(=O)c(CNc3ccc(Nc4nccc(-c5ccc(Cl)cc5)n4)cc3)cc2c1 ?
Result: inactive

Ask: And CCCCCc1c(C)[nH]c(/C=C2\N=C(c3ccc[nH]3)C=C2Oc2ccc(Cl)cc2)c1C ?
Result: active

Ask: And NC(=O)c1cc(Cl)ccc1NC(=O)c1ccccc1-c1ccccc1 ?
Result: inactive

* * *

tested on: CAKI-1 renal; assay: NCI-60 one-dose screen, 48 h; settings: 10 µM unless noted
Compounds without any hit were thinned out: in the full panel of roughly 83,000, 20% have a hit. The source made the active and inactive calls. Rule for the calls: active = growth percent below 10; inactive = the rest.
Allowed answers: class 1 = active, class 0 = inactive

Ask: Could you please tell me the result logged for Nc1ccc2c(c1Br)Cc1ccccc1-2 in this assay?
Result: class 0

Ask: And COc1cc(NC(=O)NCc2ccco2)ccc1-c1ccc(NC(=O)NCc2ccco2)cc1OC ?
Result: class 0

Ask: And COC(=O)C1(NC(=O)CNC(=O)OCc2ccccc2)CCCC1 ?
Result: class 0

Ask: And CSc1nc(Nc2ccc(S(=O)(=O)Nc3ccon3)cc2)c(C#N)c(-c2ccc(Cl)cc2)n1 ?
Result: class 0

Ask: And CSc1nc(-c2ccc(O)cc2O)c2c(=O)[nH]c(Nc3ccc(S(=O)(=O)Nc4nc(C)cc(C)n4)cc3)nc2n1 ?
Result: class 0

Ask: And CO[C@H]1/C=C/O[C@@]2(C)Oc3c(C)c(O)c4c(O)c(c(/C=N/N5C(C)CN(Cc6ccc(C#N)cc6)CC5C)c(O)c4c3C2=O)NC(=O)/C(C)=C\C=C\[C@H](C)[C@H](O)[C@@H](C)[C@@H](O)[C@@H](C)[C@H](OC(C)=O)[C@@H]1C (some centres not stated) ?
Result: class 0

Ask: And CCC(C)C1NC(=O)C(CCNCS(=O)(=O)O)NC(=O)C(NC(=O)C(CCNCS(=O)(=O)O)NC(=O)C(NC(=O)C(CCNCS(=O)(=O)O)NC(=O)CCCCC(C)C)C(C)O)CCNC(=O)C(C(C)O)NC(=O)C(CCNCS(=O)(=O)O)NC(=O)C(CCNCS(=O)(=O)O)NC(=O)C(C(C)CC)NC1=O (configuration not stated) ?
Result: class 0

Ask: And COc1ccc(C(=O)COc2cccc(/C=C3\COc4ccc5ccccc5c4C3=O)c2)cc1 ?
Result: class 0

Ask: And O=C1NC(=O)/C(=C/c2ccc(Cl)cc2Cl)N1 ?
Result: class 0

Ask: And Oc1c(Cl)cc(Cl)c(Cl)c1Cc1c(O)c(Cl)cc(Cl)c1Cl ?
Result: class 1

Ask: And CCN(Cc1cccc(S(=O)(=O)[O-])c1)c1ccc(C(=C2C=CC(=[N+](CC)Cc3cccc(S(=O)(=O)O)c3)C=C2)c2ccccc2S(=O)(=O)O)cc1 ?
Result: class 0

Ask: And O=C1C(=O)c2c(nc3ccc(Cl)cn23)-c2ccccc21 ?
Result: class 1

Ask: And COc1ccccc1NC(=O)c1sc2nc3c(cc2c1N)C(=O)CCC3 ?
Result: class 0

Ask: And O=C1/C(=C/c2ccc(F)cc2)Cc2ccccc21 ?
Result: class 0

Ask: And O=C(Nc1ccccc1OC(=O)c1ccccc1)c1ccccc1 ?
Result: class 0

Ask: And O=C(Nc1cccc(Cl)c1)Nc1cccc(Cl)c1 ?
Result: class 0

Ask: And N#Cc1c(-c2ccccc2)cc(-c2ccccc2)n(CCC(=O)O)c1=O ?
Result: class 0

* * *

tested on: HCT-116 colon; experiment: NCI-60 one-dose screen, 48 h; settings: 10 µM unless noted
This is part of a sample that, as a whole, favours compounds with a hit. Of some 83,000 tested, about 20% had one in any assay. Active and inactive are the calls of the source. The calls were made as follows: active = growth percent below 10; inactive = the rest.
Allowed answers: active, inactive

Ask: Could you please tell me the result logged for NS(=O)(=O)c1ccc(-n2ncc3c(SCc4ccccc4)ncnc32)cc1 in this assay?
Result: inactive

Ask: And COc1cc(/C=C/C(=O)CC(=O)/C=C/c2ccc(OC(=O)CCNC34CC5CC(CC(C5)C3)C4)c(OC)c2)ccc1OC(=O)CCNC12CC3CC(CC(C3)C1)C2 ?
Result: active

Ask: And NS(=O)(=O)N(c1cc(C(F)(F)F)cc(C(F)(F)F)c1)C1CCN(Cc2ccc(C(F)(F)F)cc2)CC1 ?
Result: active

Ask: And NC(=O)NC1(C(=O)O)CCCC1 ?
Result: inactive

Ask: And O=C(O)CCNS(=O)(=O)c1ccc(-c2ccccc2)cc1 ?
Result: inactive

Ask: And COc1cccc(C2=NN(C(C)=O)C(c3cc(OC)c(OC)c(OC)c3)C2)c1 (centres undefined) ?
Result: inactive

Ask: And CCOC(=O)Nc1cc(-c2ccc(C)c(NS(C)(=O)=O)c2)nn2c(C)nnc12 ?
Result: inactive

Ask: And CN[C@@H]1C(OC2[C@H](O[C@H]3[C@H](O)[C@@H](O)[C@H](N=C(N)N)[C@@H](O)[C@@H]3N=C(N)N)OC(C)[C@]2(O)CO)OC(CO)C(O)C1O (some centres undefined) ?
Result: inactive

Ask: And CCCCCc1c(C)[nH]c(/C=C2\N=C(c3ccc[nH]3)C=C2Oc2ccc(Cl)cc2)c1C ?
Result: active

* * *

test system: SNB-19 CNS; assay: NCI-60 one-dose screen, 48 h; settings: 10 µM unless noted
This is part of a sample that, as a whole, favours compounds with a hit. Of some 83,000 tested, about 20% had one in any assay. Calls of active or inactive are those of the source. The calls were made as follows: active = growth percent below 10; inactive = the rest.
Allowed answers: active, inactive

Ask: Could you please tell me the result logged for C=C1CCC2C(C)(COC(=O)CC)C(OC(=O)CC)CCC2(C)C1C/C=C1/C(=O)OCC1OC(=O)CC (stereo not given) in this assay?
Result: inactive

Ask: And O=C(Nc1ccc(Cl)cc1)Nc1ccccc1CNc1nc(Nc2ccc(OCCN3CCCC3)cc2)ncc1Cl ?
Result: inactive

Ask: And COc1cc(/C=N/NC(=O)c2ccc(C(F)(F)F)nc2Nc2ccc(Cl)cc2C)ccc1O ?
Result: inactive

Ask: And O=C1CNc2cc(Cl)ccc2N1 ?
Result: inactive

Ask: And O=c1ccn(C2CC=C(CO)O2)c(=O)[nH]1 (stereo not given) ?
Result: inactive

Ask: And O=C1c2cccc3c([N+](=O)[O-])ccc(c23)C(=O)N1CCCCl ?
Result: active

Ask: And Cc1cc2c(cc1C)[n+](Cc1ccc3ccccc3c1)cn2Cc1ccc2ccccc2c1 ?
Result: active

Ask: And COc1ccc(C2=NN(C(C)=O)C(c3cccc(Nc4ccnc5cc(Cl)ccc45)c3)C2)cc1 (stereo not given) ?
Result: inactive

Ask: And CCN1CCN(c2nc(NNC(=O)Cc3ccccc3)nc(N3CCN(C(c4ccccc4)c4ccccc4)CC3)n2)CC1 ?
Result: inactive

Ask: And CC12CCC3C(=CCc4cc(O)ccc43)C1CCC2=O (stereo not given) ?
Result: inactive

* * *

tested on: SR leukemia; assay: NCI-60 one-dose screen, 48 h (100 = growth as untreated, 0 = no growth, -100 = all killed); conditions: 10 µM unless noted
The panel holds about 83,000 compounds, 20% with a hit somewhere; the sample as a whole holds those more often. Calls of active or inactive are those of the source. Rule for the calls: active = growth percent below 10; inactive = the rest.
Measurement Name: growth

Ask: Return reported growth; argument: c1ccc(Nc2ccc(Nc3nc(-c4ccccc4)nc4ccccc34)cc2)cc1
Result: 52.1% (inactive)

Ask: And COc1cnc2c(c1)C(=O)c1c-2n(CCCN2CCCC2)c(=O)c2cc(F)ccc12 ?
Result: -9.13% (active)

Ask: And COc1cc(NC(C)CCCN)c2nc(C)ccc2c1Oc1ccc(F)cc1 (stereo not given) ?
Result: 60.9% (inactive)

Ask: And c1ccc(CN=C(NCc2ccccc2)NCc2ccccc2)cc1 ?
Result: 77.4% (inactive)

Ask: And COC(=O)[C@H](Cc1cnc[nH]1)NC(=O)[C@@H](NC(=O)Nc1cc(C(F)(F)F)cc(C(F)(F)F)c1)C(C)C ?
Result: -37% [100 µM] (active)

Ask: And Cc1onc(-c2ccccc2Cl)c1C(=O)N[C@@H]1C(=O)N2[C@@H]1SC(C)(C)[C@@H]2C(=O)O ?
Result: 91.6% (inactive)

Ask: And COc1ccc(CCN2C(=O)CCC3=C2CCCC3=O)cc1OC ?
Result: 101% (inactive)

Ask: And COc1ccc(OC)c2c1CCC1(C2)NC(=O)NC1=O (stereo not given) ?
Result: 102% (inactive)

Ask: And COc1cc(-c2nc3sc4c(c3c(=O)[nH]2)CCCCCC4)cc(OC)c1OC ?
Result: 15.5% (inactive)

Ask: And C/C=C(/C(=C/C)c1ccc(O)cc1)c1ccc(O)cc1 ?
Result: 15.5% (inactive)
